Let's look at some compounds and their measured IC50.
Test system: Plasmodium falciparum
Test: Antiplasmodial activity against Plasmodium falciparum FcB1/columbia infected in human erythrocytes
Assay type: functional, organism-based
measured.property: IC50 (µM)

compound=COc1cc2c(c(OC)c1)C(=O)/C(=C/c1cc(Cl)ccc1Cl)N2 assayed_target="Plasmodium falciparum" endpoint_result=8.4
compound=COc1cc2c(c(OC)c1)C(=O)/C(=C/c1ccccc1Cl)N2 assayed_target="Plasmodium falciparum" endpoint_result=9.9
compound=COc1cc2c(c(OC)c1)C(=O)/C(=C/c1ccc(C(C)C)cc1)N2 assayed_target="Plasmodium falciparum" endpoint_result=4.4
compound=O=C1/C(=C/c2ccccc2)Oc2cc(O)cc(O)c21 assayed_target="Plasmodium falciparum" endpoint_result=94.5
compound=CCc1ccccc1/C=C1\Oc2cc(OC)cc(OC)c2C1=O assayed_target="Plasmodium falciparum" endpoint_result=21
compound=COc1cc(OC)c2c(c1)O/C(=C\c1ccc(C(C)(C)C)cc1)C2=O assayed_target="Plasmodium falciparum" endpoint_result=13.3
compound=COc1cc(OC)c2c(c1)O/C(=C\c1ccc(-c3ccncc3)cc1)C2=O assayed_target="Plasmodium falciparum" endpoint_result=85
compound=COc1cc(OC)c2c(c1)O/C(=C\c1ccc(-c3ccccc3)cc1)C2=O assayed_target="Plasmodium falciparum" endpoint_result=234
compound=Cc1ccc(/C=C2\Oc3cc(O)cc(O)c3C2=O)cc1 assayed_target="Plasmodium falciparum" endpoint_result=63.4
compound=COc1cc(OC)c2c(c1)O/C(=C\c1ccc(F)cc1)C2=O assayed_target="Plasmodium falciparum" endpoint_result=86.7
compound="COc1ccc(/C=C2\\Oc3cc(OC)cc(OC)c3C2=O)cc1 [4,4',6-TRIMETHOXY-AURONE]" assayed_target="Plasmodium falciparum" endpoint_result=11
